Here, each record is paired with measured t1/2 data.
test: Aqueous stability of the compound in HCL at pH 1 assessed as compound half life measured after 24 hrs by UPLC analysis; format: physicochemical; settings: buffer, pH 1, 24 h, 24 h
Return type: number; implicit unit days.

IN: Using the record for COC(=O)N[C@H](C(=O)N[C@@H](Cc1ccccc1)[C@H](CN(Cc1ccc(-c2ccccn2)cc1)NC(=O)[C@@H](NC(=O)OC)C(C)(C)C)OC(=O)OC(OC(=O)[C@H](C)N)C(C)C)C(C)(C)C (stereo in doubt; 3q) , state its measured t1/2.
OUT: 5.225

IN: Give a short answer stating reported t1/2 for COC(=O)N[C@H](C(=O)N[C@@H](Cc1ccccc1)[C@H](CN(Cc1ccc(-c2ccccn2)cc1)NC(=O)[C@@H](NC(=O)OC)C(C)(C)C)OC(=O)OC(OC(=O)CCN)C(C)C)C(C)(C)C (stereo in doubt; 3aa) .
OUT: 15.68

IN: Please give the documented t1/2 of COC(=O)N[C@H](C(=O)N[C@@H](Cc1ccccc1)[C@H](CN(Cc1ccc(-c2ccccn2)cc1)NC(=O)[C@@H](NC(=O)OC)C(C)(C)C)OC(=O)OC(OC(=O)[C@@H](N)CC(C)C)C(C)C)C(C)(C)C (stereo in doubt; 3u)
OUT: 5.7
